# Method summary: Plasma concentration in Sprague-Dawley rat at 30 mg/kg, ip after 6 hrs
# Assay type: ADME, organism-based
# Parameters: dose 30 mg/kg, route intraperitoneal

{"Mol smiles": "CN1CCN(C[C@H](c2cccc(OC(F)(F)F)c2)C2(O)CCCCC2)CC1.Cl.Cl", "concentration at 6 h": "303 ng/mL"}

----------
# Method summary: Plasma concentration in Sprague-Dawley rat at 30 mg/kg, ip after 1 hr
# Format: ADME, organism-based
# Parameters: dose 30 mg/kg, route intraperitoneal

{"Mol smiles": "CN1CCN(C[C@H](c2cccc(OC(F)(F)F)c2)C2(O)CCCCC2)CC1.Cl.Cl", "concentration at 1 h / ng/mL": 1960}

----------
# Method summary: Plasma concentration in Sprague-Dawley rat at 30 mg/kg, po after 6 hrs
# Assay type: ADME, organism-based
# Design: dose 30 mg/kg, route oral

{"Mol smiles": "CN1CCN(C[C@H](c2cccc(OC(F)(F)F)c2)C2(O)CCCCC2)CC1.Cl.Cl", "concentration at 6 h (ng/mL)": 36.5}

----------
# Method summary: Inhibition of adrenergic receptor 1 alpha by competition radioligand binding assay

{"Mol smiles": "CN1CCN(C[C@H](c2cccc(OC(F)(F)F)c2)C2(O)CCCCC2)CC1.Cl.Cl", "IC50": "> 10 µM"}

----------
# Target entity: Sodium-dependent dopamine transporter (Homo sapiens, UniProt Q01959)
# Sequence (Q01959 whole entry): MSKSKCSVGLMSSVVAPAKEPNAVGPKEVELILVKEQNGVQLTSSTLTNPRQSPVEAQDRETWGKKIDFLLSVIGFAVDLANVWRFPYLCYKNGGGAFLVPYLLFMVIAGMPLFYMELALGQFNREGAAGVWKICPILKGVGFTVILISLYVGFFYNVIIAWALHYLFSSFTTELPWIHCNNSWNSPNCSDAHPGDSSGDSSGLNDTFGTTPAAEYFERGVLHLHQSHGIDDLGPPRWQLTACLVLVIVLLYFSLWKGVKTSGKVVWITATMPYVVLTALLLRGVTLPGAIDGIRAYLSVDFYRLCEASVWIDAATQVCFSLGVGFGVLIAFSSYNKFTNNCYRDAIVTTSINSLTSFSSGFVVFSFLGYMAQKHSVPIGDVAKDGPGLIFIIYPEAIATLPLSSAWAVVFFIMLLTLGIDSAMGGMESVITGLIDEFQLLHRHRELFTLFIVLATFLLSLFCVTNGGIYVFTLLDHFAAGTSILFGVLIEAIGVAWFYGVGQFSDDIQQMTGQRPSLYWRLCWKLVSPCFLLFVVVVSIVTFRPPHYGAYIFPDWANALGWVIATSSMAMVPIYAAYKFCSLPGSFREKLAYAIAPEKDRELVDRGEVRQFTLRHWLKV
Labelling field: enter Y if recorded Ki is less than 70 nM. Enter N if it equals or exceeds that cut-off.

{"Molecule": "CN1CCN(C[C@@H](c2cccc(Cl)c2)C2(O)CCCCC2)CC1", "Discrete label": "N"}
{"Molecule": "CN1CCN(C[C@H](c2cccc(Cl)c2)C2(O)CCCCC2)CC1", "Discrete label": "N"}
{"Molecule": "OC1([C@@H](CN2CCNCC2)c2cccc(Cl)c2)CCCCC1", "Discrete label": "N"}
{"Molecule": "CN1CCN(CC(c2cccc(Cl)c2)C2(O)CCCCC2)CC1 (stereo not given)", "Discrete label": "Y"}
{"Molecule": "OC1(C(CN2CCNCC2)c2cccc(Cl)c2)CCCCC1 (stereo not given)", "Discrete label": "Y"}

----------
# Method summary: Plasma concentration in Sprague-Dawley rat at 30 mg/kg, po after 0.5 hrs
# Assay type: ADME, organism-based
# Design: dose 30 mg/kg, route oral

{"Mol smiles": "CN1CCN(C[C@H](c2cccc(OC(F)(F)F)c2)C2(O)CCCCC2)CC1.Cl.Cl", "concentration at 0.5 h": "323 ng/mL"}

----------
# Target entity: UniProt:P41595
# Sequence (P41595 whole entry): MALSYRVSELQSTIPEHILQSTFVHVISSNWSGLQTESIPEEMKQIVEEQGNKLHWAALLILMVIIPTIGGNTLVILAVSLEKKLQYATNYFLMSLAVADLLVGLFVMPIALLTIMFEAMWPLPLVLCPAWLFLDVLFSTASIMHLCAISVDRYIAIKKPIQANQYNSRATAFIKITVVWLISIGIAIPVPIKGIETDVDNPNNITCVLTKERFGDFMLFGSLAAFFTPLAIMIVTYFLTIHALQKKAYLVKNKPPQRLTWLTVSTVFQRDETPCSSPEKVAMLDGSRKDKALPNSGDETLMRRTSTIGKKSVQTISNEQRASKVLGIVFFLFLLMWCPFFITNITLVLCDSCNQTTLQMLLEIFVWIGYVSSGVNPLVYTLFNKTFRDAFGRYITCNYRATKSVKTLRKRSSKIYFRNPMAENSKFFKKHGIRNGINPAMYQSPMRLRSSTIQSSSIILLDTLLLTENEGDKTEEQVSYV

{"Mol smiles": "CN1CCN(C[C@H](c2cccc(OC(F)(F)F)c2)C2(O)CCCCC2)CC1.Cl.Cl", "Target entity": "UniProt:P41595", "IC50": "> 10 µM"}

----------
# Organism: Homo sapiens
# Method summary: Selectivity ratio of IC50 for human NET over IC50 for human SERT
Measurement name: Ratio IC50

{"Molecule": "COc1cccc(C(CN(C)C)C2(O)CCCCC2)c1 (centres undefined)", "Measurement name": "Ratio IC50", "Test result": 0.42}
{"Molecule": "CN(C)CC(c1cccc(C(F)(F)F)c1)C1(O)CCCCC1 (centres undefined)", "Measurement name": "Ratio IC50", "Test result": 16.7}
{"Molecule": "CN(C)CC(c1ccc(Cl)cc1)C1(O)CCCCC1 (centres undefined)", "Measurement name": "Ratio IC50", "Test result": 1}
{"Molecule": "CN(C)CC(c1ccccc1Cl)C1(O)CCCCC1 (centres undefined)", "Measurement name": "Ratio IC50", "Test result": 0.86}
